Target: T1, rat VPAC1 receptor (rat, UniProt P30083 31-459)
T1 sequence (looked up): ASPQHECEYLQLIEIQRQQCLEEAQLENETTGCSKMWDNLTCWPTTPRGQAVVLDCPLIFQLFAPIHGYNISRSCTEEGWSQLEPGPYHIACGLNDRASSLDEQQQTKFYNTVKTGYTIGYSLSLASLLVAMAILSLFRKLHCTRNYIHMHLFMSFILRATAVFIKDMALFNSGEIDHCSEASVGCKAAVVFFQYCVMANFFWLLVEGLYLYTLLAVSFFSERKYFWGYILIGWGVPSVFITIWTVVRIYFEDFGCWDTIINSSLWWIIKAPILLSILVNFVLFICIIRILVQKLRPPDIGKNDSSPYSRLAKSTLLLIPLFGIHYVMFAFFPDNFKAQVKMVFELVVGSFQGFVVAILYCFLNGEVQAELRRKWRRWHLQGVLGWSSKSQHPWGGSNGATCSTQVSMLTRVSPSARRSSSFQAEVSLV
Test: cell-based or functional assay
Numbered stars: 1 amine (or outer) side, 2 acyl side, 3 side chain; on linkers, the order of the positions; unused ones are H or OH. Square brackets hold non-standard residues; d marks the D form. Ends that are not written are not given here. * marks the point of attachment. Tyr(OMe) = O-methyl-tyrosine, COc1ccc(C[C@H](N[*:1])C(=O)[*:2])cc1; Orn = NCCC[C@H](N)C(=O)O; Hexanoyl = CCCCCC(=O)*; Aib = CC(C)(N)C(=O)O
Endpoint label: Rat VPAC1 Receptor: DiscoveRx (EC50; nM), cAMP generation
One number for each entry, in nM.

Use these answered entries as a reference point.
Hexanoyl-HSDAVFTDQ[Tyr(OMe)]TR[Aib]R[Aib]QLAA[Aib]KYLQSIK[Aib]KGGPSSGAPPPS [VPAC2 receptor peptide agonist P408] :: 0.35
HSDAVFTDNYTXLRXQVAAXSYLQSIXNXGGPSSGAPPPS (N-terminal hexanoyl (C6); Orn at 12, 27 and 29; Aib at 15 and 20) [VPAC2 receptor peptide agonist P386] :: 4.34
HSDAVFTDNYTXLRXQVASXKYLQSIXNXGGPSSGAPPPS (N-terminal hexanoyl (C6); Orn at 12, 27 and 29; Aib at 15 and 20) [VPAC2 receptor peptide agonist P387] :: 20.4
Hexanoyl-HSDAVFTDNYTQLR[Aib]QVAA[Aib]KYLQSI[Orn]N[Orn]GGPSSGAPPPS [VPAC2 receptor peptide agonist P368] :: 20.9

Kindly review the next binder as well.
Field Rat VPAC1 Receptor: DiscoveRx (EC50; nM), cAMP generation (entry HSDAVFTDQYTXLRXQVAAXXYLQSIXXGGPSSGAPPPS (N-terminal hexanoyl (C6); Orn at 12, 21, 27 and 28; Aib at 15 and 20) [VPAC2 receptor peptide agonist P396] ) reads 1.05
